tested on: NCI-H358 (K-Ras G12C); assay: CellTiter-Glo cell viability assay, NCI-H358; format: cell-based, human; settings: Homo sapiens, NCI-H358, 120 h, NCI-H358, 5-day treatment; class symbols; read-out: Additional H358 Cell Viability assay data (K-Ras G12C, IC50)
pIC50: −log10 of the molar value.
Endpoint name: pIC50

Recorded result, C=CC(=O)N1CCC2(CC1)CN(C(=O)N(C)[C@H](C(=O)N[C@H]1Cc3nc(cs3)-c3ccc4c(c3)c(c(-c3cccnc3[C@H](C)OC)n4CC)CC(C)(C)COC(=O)[C@@H]3CCCN(N3)C1=O)C(C)C)C2 (atropisomer, axis not shown) [Example A702] , pIC50: 7.00 to 8.00

More entries:
Recorded result, C=CC(=O)N1CC[C@H](C(=O)N(C)[C@H](C(=O)N[C@H]2Cc3cc(O)cc(c3)-c3ccc4c(c3)c(c(-c3cncc(CN(C)C)c3)n4CC)CC(C)(C)COC(=O)[C@@H]3CCCN(N3)C2=O)C(C)C)C1 [Example A73] , pIC50: 7.00 to 8.00

Recorded result, C=CC(=O)N(C)[C@H]1C[C@@H](N(C)C(=O)N(C)[C@H](C(=O)N[C@H]2Cc3nc(cs3)-c3ccc4c(c3)c(c(-c3cccnc3[C@H](C)OC)n4CC)CC(C)(C)COC(=O)[C@@H]3CCCN(N3)C2=O)C(C)C)C1 (atropisomer, axis not shown) [Example A704] , pIC50: > 8.00

Recorded result, C=CC(=O)N1CC(N2CCN(C(=O)N(C)[C@H](C(=O)N[C@H]3Cc4nc(cs4)-c4ccc5c(c4)c(c(-c4cccnc4[C@H](C)OC)n5CC)CC(C)(C)COC(=O)[C@@H]4CCCN(N4)C3=O)C(C)C)CC2)C1 (atropisomer, axis not shown) [Example A668] , pIC50: 7.00 to 8.00
